# TARGET OR SYSTEM: anti-CC49 variable region antibodies in the serum of patient four
# ASSAY INFO: HPLC, 125I-HuCC49 + serum + 5 Tg competitor; fewer complexes = competitor bound
Under this convention, satisfied denotes percent of complexes strictly below 10% and not satisfied denotes percent of complexes at or above 10%.

Answered examples (2):
{"BINDER": "HuCC49 CDR variant H-2 (antibody, V domains shown) VH: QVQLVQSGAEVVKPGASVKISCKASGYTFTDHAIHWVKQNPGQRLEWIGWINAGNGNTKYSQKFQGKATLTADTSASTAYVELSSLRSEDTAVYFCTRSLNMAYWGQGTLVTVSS VL: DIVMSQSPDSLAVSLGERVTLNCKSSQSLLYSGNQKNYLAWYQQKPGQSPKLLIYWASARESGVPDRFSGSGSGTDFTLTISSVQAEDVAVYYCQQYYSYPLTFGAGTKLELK", "ASSIGNED CLASS": "not satisfied"}
{"BINDER": "humanized monoclonal antibody HuCC49 (parental HuCC49) (antibody, V domains shown) VH: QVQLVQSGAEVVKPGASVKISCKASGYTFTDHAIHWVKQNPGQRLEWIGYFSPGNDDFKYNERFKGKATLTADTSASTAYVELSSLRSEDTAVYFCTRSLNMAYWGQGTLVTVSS VL: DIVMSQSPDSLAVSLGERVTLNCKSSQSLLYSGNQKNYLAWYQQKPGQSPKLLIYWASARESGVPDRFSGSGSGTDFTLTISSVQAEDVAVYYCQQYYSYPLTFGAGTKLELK", "ASSIGNED CLASS": "satisfied"}

IN: Quick check: percent of complexes of HuCC49 CDR variant L-1,2 (antibody, V domains shown) VH: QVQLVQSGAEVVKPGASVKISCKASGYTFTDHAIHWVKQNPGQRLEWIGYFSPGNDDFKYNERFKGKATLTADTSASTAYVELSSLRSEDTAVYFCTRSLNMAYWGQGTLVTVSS VL: DIVMSQSPDSLAVSLGERVTLNCKSSQSVLYSSNSKNYLAWYQQKPGQSPKLLIYWASTRESGVPDRFSGSGSGTDFTLTISSVQAEDVAVYYCQQYYSYPLTFGAGTKLELK under 10%?
OUT: not satisfied

IN: Record HuCC49 CDR variant H-3 (antibody, V domains shown) VH: QVQLVQSGAEVVKPGASVKISCKASGYTFTDHAIHWVKQNPGQRLEWIGYFSPGNDDFKYNERFKGKATLTADTSASTAYVELSSLRSEDTAVYFCTRGGYYGSGSGSNYWGQGTLVTVSS VL: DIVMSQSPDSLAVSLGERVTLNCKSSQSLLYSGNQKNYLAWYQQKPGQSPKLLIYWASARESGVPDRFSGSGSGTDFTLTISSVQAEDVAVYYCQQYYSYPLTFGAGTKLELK : is its percent of complexes strictly below 10%?
OUT: satisfied

IN: Bench note: check whether HuCC49 CDR variant L-3 (antibody, V domains shown) VH: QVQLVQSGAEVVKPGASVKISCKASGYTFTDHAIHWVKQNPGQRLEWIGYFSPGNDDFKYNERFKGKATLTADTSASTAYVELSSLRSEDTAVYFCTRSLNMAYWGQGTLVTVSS VL: DIVMSQSPDSLAVSLGERVTLNCKSSQSLLYSGNQKNYLAWYQQKPGQSPKLLIYWASARESGVPDRFSGSGSGTDFTLTISSVQAEDVAVYYCQQYYSTPYSFGAGTKLELK shows percent of complexes below 10%
OUT: not satisfied

IN: Would you kindly verify if percent of complexes of HuCC49 CDR variant L-2 (antibody, V domains shown) VH: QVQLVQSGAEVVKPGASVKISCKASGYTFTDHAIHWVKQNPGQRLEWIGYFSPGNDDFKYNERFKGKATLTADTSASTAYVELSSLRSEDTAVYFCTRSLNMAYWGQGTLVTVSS VL: DIVMSQSPDSLAVSLGERVTLNCKSSQSLLYSGNQKNYLAWYQQKPGQSPKLLIYWASTRESGVPDRFSGSGSGTDFTLTISSVQAEDVAVYYCQQYYSYPLTFGAGTKLELK is strictly less than 10%?
OUT: satisfied
